Please respond with reported pIC50 for every item in the list.
target: Avi-KRAS WT (1-169) GppNHp/RAF1 RBD-3xFLAG (52-151) (Homo sapiens); construct: Avi-KRAS WT (1-169); experiment: Raf1-KRAS WT-GppNHP disruption HTRF assay (Biological Example 1); type: binding; details: KRAS WT, GppNHp-loaded; class symbols
Sequence (P01116 1-169 isoform P01116-2): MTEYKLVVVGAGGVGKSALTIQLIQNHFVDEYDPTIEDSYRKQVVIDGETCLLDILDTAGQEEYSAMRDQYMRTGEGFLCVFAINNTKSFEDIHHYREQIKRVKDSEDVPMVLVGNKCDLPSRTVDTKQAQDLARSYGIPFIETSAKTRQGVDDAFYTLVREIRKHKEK
pIC50: −log10 of the molar value.

1. CCN(c1nc(OC[C@@]23CCCN2C[C@H](F)C3)nc2c(F)c(-c3ccc(F)c4sc(N)c(C#N)c34)c(C(F)(F)F)cc12)[C@H]1C[C@@H](C)N(C(=O)N2CC(OC)C2)C1 (atropisomer, axis not shown) :: 6.00 to 7.00
2. CCN(c1nc(OC[C@@]23CCCN2C[C@H](F)C3)nc2c(F)c(-c3ccc(F)c4sc(N)c(C#N)c34)c(C(F)(F)F)cc12)[C@H]1CCN(C(=O)O[C@H]2CCOC2)C1 (atropisomer, axis not shown) :: > 7.00
3. CCN(c1nc(OC[C@@]23CCCN2C[C@H](F)C3)nc2c(F)c(-c3ccc(F)c4sc(N)c(C#N)c34)c(C(F)(F)F)cc12)[C@H]1CCN(C(=O)N2CC(OC)C2)C1 (atropisomer, axis not shown) :: > 7.00
4. CCN(CC)C(=O)c1nn2c(c1C)CN(c1nc(OCC34CCCN3CC(F)C4)nc3c(F)c(-c4ccc(F)c5sc(N)c(C#N)c45)c(C(F)(F)F)cc13)CC2 (stereo not drawn) :: 6.00 to 7.00
5. CC#CC(=O)N1CC[C@@H](N(C)c2nc(OC[C@@]34CCCN3C[C@H](F)C4)nc3c(F)c(-c4ccc(F)c5sc(N)c(C#N)c45)c(C(F)(F)F)cc23)[C@H]1C :: 6.00 to 7.00

For every item below, please supply its pIC50.
1. N#Cc1c(N)sc2c(F)ccc(-c3c(C(F)(F)F)cc4c(N5CC6CC(C5)O6)nc(OC[C@]56C[C@@H](F)CN5CC5(CC5)C6)nc4c3F)c12
2. CCN(c1nc(OC[C@@]23CCCN2C[C@H](F)C3)nc2c(F)c(-c3ccc(F)c4sc(N)c(C#N)c34)c(C(F)(F)F)cc12)[C@H]1CCN(C(=O)c2cc(C)no2)C1 (atropisomer, axis not shown)
3. CCN(c1nc(OC[C@@]23CCCN2C[C@H](F)C3)nc2c(F)c(-c3ccc(F)c4sc(N)c(C#N)c34)c(C(F)(F)F)cc12)[C@H]1CCN(C(=O)[C@@H]2CC23CC3)C1 (atropisomer, axis not shown)

5.00 to 6.00
> 7.00
6.00 to 7.00

---

tested on: GP2d cells (KRAS G12D); experiment: Cell-based pERK HTRF assay in GP2d cell (Biological Example 2); details: GP2d, GP2d (KRAS G12D) cells, pERK HTRF; class symbols
pIC50: −log10 of the molar value.
metric.name: pIC50

1) Cc1nnn2c1CN(c1nc(OC[C@@]34CCCN3C[C@H](F)C4)nc3c(F)c(-c4ccc(F)c5sc(N)c(C#N)c45)c(C(F)(F)F)cc13)[C@@H](C)C2 (atropisomer, axis not shown) :: > 7.00

Proceed to the following item.
Need pIC50, item CCN(c1nc(OC[C@@]23CCCN2C[C@H](F)C3)nc2c(F)c(-c3ccc(F)c4sc(N)c(C#N)c34)c(C(F)(F)F)cc12)[C@H]1CCN(C(=O)c2ccncn2)C1 (atropisomer, axis not shown)
> 7.00

---

target: Avi-KRAS G12D (1-169) GppNHp/RAF1 RBD-3xFLAG (52-151) (Homo sapiens, UniProt P01116, G12D); construct: Avi-KRAS G12D (1-169); assay: Raf1-KRAS G12D-GppNHP disruption HTRF assay (Biological Example 1); assay type: binding; conditions: KRAS G12D-GppNHp/RAF1 RBD HTRF
Sequence (P01116 1-169 isoform P01116-2 G12D): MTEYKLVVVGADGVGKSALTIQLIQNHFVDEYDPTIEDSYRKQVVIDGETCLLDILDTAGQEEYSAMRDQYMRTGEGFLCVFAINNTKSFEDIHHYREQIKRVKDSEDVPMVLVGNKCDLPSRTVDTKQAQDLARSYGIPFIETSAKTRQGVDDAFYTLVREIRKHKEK
metric.name: IC50

1) N#Cc1c(N)sc2c(F)ccc(-c3c(C(F)(F)F)cc4c(N5CCn6nc(C7CC7)cc6C5)nc(OC[C@@]56CCCN5C[C@H](F)C6)nc4c3F)c12 :: 1 to 10 µM
2) CCN(c1nc(OC[C@@]23CCCN2C[C@H](F)C3)nc2c(F)c(-c3ccc(F)c4sc(N)c(C#N)c34)c(C(F)(F)F)cc12)[C@H]1CC(=O)N(C)C1 :: 0.1 to 1 µM
3) CCN(c1nc(OC[C@@]23CCCN2C[C@H](F)C3)nc2c(F)c(-c3ccc(F)c4sc(N)c(C#N)c34)c(C(F)(F)F)cc12)[C@H]1CCN(C(=O)C2CC2(F)F)C1 (some centres unmarked) :: < 0.1 µM

For every item below, please supply its IC50.
1. CCC(=O)N1CC[C@@H](N(CC)c2nc(OC[C@@]34CCCN3C[C@H](F)C4)nc3c(F)c(-c4ccc(F)c5sc(N)c(C#N)c45)c(Cl)cc23)[C@H]1C
2. N#Cc1c(N)sc2c(F)ccc(-c3c(C(F)(F)F)cc4c(N5C6CC5CS(=O)(=O)C6)nc(OC[C@@]56CCCN5C[C@H](F)C6)nc4c3F)c12
3. C[C@@H]1[C@H](N(C)c2nc(OC[C@@]34CCCN3C[C@H](F)C4)nc3c(F)c(-c4ccc(F)c5sc(N)c(C#N)c45)c(C(F)(F)F)cc23)CCN1C(=O)C1(F)CC1
4. N#Cc1c(N)sc2c(F)ccc(-c3c(C(F)(F)F)cc4c(N5CCCN6C(=O)CCC6C5)nc(OCC56CCCN5CC(F)C6)nc4c3F)c12 (centres unmarked)
5. CN(C)C(=O)c1nc2c(s1)CCN(c1nc(OCC34CCCN3CC(F)C4)nc3c(F)c(-c4ccc(F)c5sc(N)c(C#N)c45)c(C(F)(F)F)cc13)C2 (centres unmarked)

0.1 to 1 µM
0.1 to 1 µM
0.1 to 1 µM
0.1 to 1 µM
1 to 10 µM

---

biological target: Avi-KRAS G12D (2-169) GTP/RAF1 RBD-3xFLAG (51-131) (Homo sapiens, UniProt P01116, G12D); construct: Avi-KRAS G12D (2-169); assay: Raf1-KRAS G12D-GTP disruption HTRF assay (Biological Example 3); format: binding; details: KRAS G12D, GTP-loaded
Sequence (P01116 2-169 isoform P01116-2 G12D): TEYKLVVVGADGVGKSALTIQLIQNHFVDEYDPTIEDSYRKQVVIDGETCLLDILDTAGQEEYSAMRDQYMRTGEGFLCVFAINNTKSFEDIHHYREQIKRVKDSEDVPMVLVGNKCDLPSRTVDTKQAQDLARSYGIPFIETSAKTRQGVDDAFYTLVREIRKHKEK
Please respond with reported IC50 for every item in the list.

Example entries begin here.
1. C[C@@H]1[C@H](N(C)c2nc(OC[C@@]34CCCN3C[C@H](F)C4)nc3c(F)c(-c4ccc(F)c5sc(N)c(C#N)c45)c(C(F)(F)F)cc23)CCN1C(=O)C1CC1 (atropisomer, axis not shown) [Compound 333] :: 100 to 1000 nM
2. CCN(c1nc(OC[C@@]23CCCN2C[C@H](F)C3)nc2c(F)c(-c3ccc(F)c4sc(N)c(C#N)c34)c(C(F)(F)F)cc12)[C@H]1CCN(C(=O)O[C@H](C)C(F)(F)F)C1 (atropisomer, axis not shown) [Compound 850] :: 100 to 1000 nM
3. CCN(c1nc(OC[C@@]23CCCN2C[C@H](F)C3)nc2c(F)c(-c3ccc(F)c4sc(N)c(C#N)c34)c(C(F)(F)F)cc12)[C@@H]1C[C@H]2CCC(=O)N2C1 (atropisomer, axis not shown) [Compound 532] :: 100 to 1000 nM

Proceed to the following item.
Need IC50, item CCN(c1nc(OC[C@@]23CCCN2C[C@H](F)C3)nc2c(F)c(-c3ccc(F)c4sc(N)c(C#N)c34)c(C(F)(F)F)cc12)[C@@H]1CC(=O)N(C2CC2)C1 (atropisomer, axis not shown) [Compound 703]
1000 to 10000 nM

---

target: Avi-KRAS G12R (1-169) GppNHp/RAF1 RBD-3xFLAG (52-151) (Homo sapiens, UniProt P01116, G12R); construct: Avi-KRAS G12R (1-169); experiment: Raf1-KRAS G12R-GppNHP disruption HTRF assay (Biological Example 1); format: binding; conditions: KRAS G12R, GppNHp-loaded; Table 11
Sequence (P01116 1-169 isoform P01116-2 G12R): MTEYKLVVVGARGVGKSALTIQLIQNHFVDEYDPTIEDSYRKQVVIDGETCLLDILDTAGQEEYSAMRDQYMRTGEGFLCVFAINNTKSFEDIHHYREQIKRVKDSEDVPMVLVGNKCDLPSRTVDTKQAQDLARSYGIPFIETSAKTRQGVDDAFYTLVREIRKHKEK
Please respond with reported IC50 for every item in the list.

Example entries begin here.
1) CN(C[C@@H](F)CO)c1nc(OC[C@@]23CCCN2C[C@H](F)C3)nc2c(F)c(-c3ccc(F)c4sc(N)c(C#N)c34)c(C(F)(F)F)cc12 :: 100 to 1000 nM
2) CN(c1nc(OC[C@@]23CCCN2C[C@H](F)C3)nc2c(F)c(-c3ccc(F)c4sc(N)c(C#N)c34)c(C(F)(F)F)cc12)C1CCOCC1 :: 100 to 1000 nM
3) CC(=O)N1C[C@H]2CCN(c3nc(OC[C@@]45CCCN4C[C@H](F)C5)nc4c(F)c(-c5ccc(F)c6sc(N)c(C#N)c56)c(C(F)(F)F)cc34)[C@H]2C1 :: 1000 to 10000 nM
4) CC(=O)N1CC[C@@H](N(C)c2nc(OC[C@@]34CCCN3C[C@H](F)C4)nc3c(F)c(-c4ccc(F)c5sc(N)c(C#N)c45)c(C(F)(F)F)cc23)C1 :: 100 to 1000 nM

For every item below, please supply its IC50.
1. COCCN(C)c1nc(OC[C@@]23CCCN2C[C@H](F)C3)nc2c(F)c(-c3ccc(F)c4sc(N)c(C#N)c34)c(C(F)(F)F)cc12
2. N#Cc1c(N)sc2c(F)ccc(-c3c(C(F)(F)F)cc4c(N5C[C@H]6C[C@@H]5CO6)nc(OC[C@@]56CCCN5C[C@H](F)C6)nc4c3F)c12
3. N#Cc1c(N)sc2c(F)ccc(-c3c(C(F)(F)F)cc4c(N5CC6CCC(C5)O6)nc(OC[C@@]56CCCN5C[C@H](F)C6)nc4c3F)c12
4. CN(c1nc(OCC2(CN3CCOCC3)CC2)nc2c(F)c(-c3ccc(F)c4sc(N)nc34)c(C(F)(F)F)cc12)[C@H]1C[C@@H](O)C1 (atropisomer, axis not shown)

100 to 1000 nM
100 to 1000 nM
100 to 1000 nM
1000 to 10000 nM
